- measurement-target: UniProtKB Q96EB6
- assay-overview: Trp mass spectrometry assay of SIRT1 activation
- Assay type: biochemical
- run-parameters: Trp mass spectrometry assay; concentration of test compound giving 150% activation of SIRT1
result-type: Tryp AVG EC1.5 (μM)

{"compound": "O=C(Nc1ccccn1)N1c2nc(-c3ccnc(N4CCC(F)(F)C4)c3)ccc2N2CC[C@H]1C2 [Example 388]", "result": "A (A (EC1.5<1 μM))"}
{"compound": "O=C(Nc1ccccn1)N1c2nc(-c3cccc(C(F)(F)F)c3F)ccc2N2CC[C@H]1C2 [Example 334]", "result": "B (B (EC1.5 1-25 μM))"}
{"compound": "N#Cc1cccc(-c2ccc3c(n2)N(C(=O)Nc2cncc(F)c2)[C@H]2CCCN3C2)c1 [Example 353]", "result": "A (A (EC1.5<1 μM))"}
{"compound": "CN(C)c1ccc(-c2ccc3c(n2)N(C(=O)Nc2ccccn2)[C@H]2CCN3C2)cn1 [Example 345]", "result": "B (B (EC1.5 1-25 μM))"}

---

- measurement-target: UniProtKB Q96EB6
- assay-overview: Trp mass spectrometry assay of SIRT1 activation
- Assay type: biochemical
- run-parameters: Trp mass spectrometry assay; EC1.5 = concentration of test compound that results in 150% activation of SIRT1
result-type: Tryp AVG EC1.5 (μM)

{"given-smiles": "COc1cc(NC(=O)N2c3nc(-c4cccc(N5CCOCC5)c4)ccc3N3CCC[C@H]2C3)ncn1", "Tryp AVG EC1.5 (μM)": "B (B (EC1.5 1-25 μM))"}
{"given-smiles": "O=C(Nc1cncc(F)c1)N1c2nc(-c3ccnc(N4CC[C@@H](F)C4)c3)ccc2N2CC[C@H]1C2", "Tryp AVG EC1.5 (μM)": "B (B (EC1.5 1-25 μM))"}
{"given-smiles": "O=C(Nc1cccc(C(F)(F)F)c1)N1c2nc(-c3cccc(C(F)(F)F)c3)ccc2N2CC[C@H]1C2", "Tryp AVG EC1.5 (μM)": "A (A (EC1.5<1 μM))"}
{"given-smiles": "COC(=O)N1CCCN(c2ccc3c(n2)N(C(=O)Nc2ccncn2)[C@H]2CCCN3C2)CC1", "Tryp AVG EC1.5 (μM)": "B (B (EC1.5 1-25 μM))"}
{"given-smiles": "COc1cc(NC(=O)N2c3nc(-c4cccc(Cl)c4)ccc3N3CCC2CC3)nc(OC)n1", "Tryp AVG EC1.5 (μM)": "A (A (EC1.5<1 μM))"}
{"given-smiles": "O=C(Nc1cnccn1)N1c2nc(-c3cncc(C(F)(F)F)c3)ccc2N2CCC[C@H]1C2", "Tryp AVG EC1.5 (μM)": "A (A (EC1.5<1 μM))"}

stdin: Provide value of Tryp AVG EC1.5 (μM) for this record tested with UniProtKB Q96EB6: O=C(NCCCCc1ccccc1)N1c2nc(-c3cccc(C(F)(F)F)c3)ccc2N2CC[C@H]1C2
stdout: B (B (EC1.5 1-25 μM))

stdin: Form field - read-out: Tryp AVG EC1.5 (μM); system: UniProtKB Q96EB6; submitted item: CN(C)c1ccc(-c2ccc3c(n2)N(C(=O)Nc2cnccn2)[C@H]2CCN3C2)cn1
stdout: B (B (EC1.5 1-25 μM))

---

- measurement-target: SIRT1 (Homo sapiens)
- assay-overview: Trp mass spectrometry assay of SIRT1 activation
- Format: biochemical
- run-parameters: Trp peptide assay; EC1.5 = concentration that results in 150% activation of SIRT1
result-type: TRP Activity (EC1.5)

{"given-smiles": "O=C(Nc1ccnc(OC[C@H](O)CO)c1)N1c2nc(-c3cccc(C(F)(F)F)c3)ccc2N2CC[C@H]1C2", "result-type": "TRP Activity (EC1.5)", "result": "A (A (EC1.5<1 μM))"}
{"given-smiles": "Cc1cc(-c2ccc3c(n2)N(C(=O)Nc2cnccn2)[C@H]2CCN3C2)cnc1C", "result-type": "TRP Activity (EC1.5)", "result": "A (A (EC1.5<1 μM))"}

---

- measurement-target: SIRT1 (Homo sapiens)
- Sequence (Q96EB6 1-747): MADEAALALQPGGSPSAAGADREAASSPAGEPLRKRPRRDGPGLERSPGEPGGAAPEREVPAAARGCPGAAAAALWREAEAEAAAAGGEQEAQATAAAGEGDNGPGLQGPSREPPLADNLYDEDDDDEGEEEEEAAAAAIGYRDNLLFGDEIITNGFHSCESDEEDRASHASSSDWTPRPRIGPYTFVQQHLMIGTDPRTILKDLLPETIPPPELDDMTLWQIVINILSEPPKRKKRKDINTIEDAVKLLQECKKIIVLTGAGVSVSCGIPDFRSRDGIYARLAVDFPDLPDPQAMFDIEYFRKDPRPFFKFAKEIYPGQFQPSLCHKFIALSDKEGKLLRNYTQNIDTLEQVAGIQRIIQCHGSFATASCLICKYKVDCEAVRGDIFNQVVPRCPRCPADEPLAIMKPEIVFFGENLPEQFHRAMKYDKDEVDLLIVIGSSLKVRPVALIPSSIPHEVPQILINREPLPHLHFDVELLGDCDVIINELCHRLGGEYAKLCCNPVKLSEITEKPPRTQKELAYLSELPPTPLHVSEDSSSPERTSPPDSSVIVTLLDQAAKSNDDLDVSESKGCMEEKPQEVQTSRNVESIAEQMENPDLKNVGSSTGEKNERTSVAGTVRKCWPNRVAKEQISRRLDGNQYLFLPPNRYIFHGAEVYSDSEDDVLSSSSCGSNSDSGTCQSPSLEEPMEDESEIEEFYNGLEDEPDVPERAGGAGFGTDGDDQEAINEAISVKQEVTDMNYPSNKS
- assay-overview: Trp mass spectrometry assay of SIRT1 activation
- Assay type: biochemical
- run-parameters: Trp peptide assay; maximum activity relative to control (100%); read-out: TRP MAX RESP (percent maximum fold activation)
result-type: Emax

{"compound": "CN1CCN(c2ccc3c(n2)N(C(=O)Nc2cnccn2)[C@H]2CCN3C2)CC1", "measurement-target": "SIRT1 (Homo sapiens)", "Emax": "> 150%"}
{"compound": "CCc1cnc(NC(=O)N2c3nc(-c4ccnc(C)c4)ccc3N3CC[C@H]2C3)cn1", "measurement-target": "SIRT1 (Homo sapiens)", "Emax": "> 150%"}

Here is another compound to look at.
stdin: Please look up its Emax: Cc1cc(-c2ccc3c(n2)N(C(=O)Nc2cncc(C(C)C)n2)[C@H]2CCN3C2)ccn1
stdout: > 150%

---

- measurement-target: SIRT1 (Homo sapiens, UniProt Q96EB6)
- assay-overview: Trp mass spectrometry assay of SIRT1 activation
- Assay type: biochemical
- run-parameters: Trp peptide assay; EC1.5 = concentration that results in 150% activation of SIRT1
Where a name gives a salt, the structure may show the parent alone.
result-type: TRP Activity (EC1.5)

Record excerpt, results attached:
{"compound": "CC1CCN(c2ccc3c(n2)N(C(=O)Nc2cnccn2)[C@H]2CCN3C2)CC1", "TRP Activity (EC1.5)": "B (B (EC1.5 1-25 μM))"}
{"compound": "Cc1cc(-c2ccc3c(n2)N(C(=O)Nc2nccc4nccnc24)[C@H]2CCN3C2)ccn1", "TRP Activity (EC1.5)": "B (B (EC1.5 1-25 μM))"}
{"compound": "O=C(NC1CCOC1)c1ccc2c(n1)N(C(=O)Nc1ccccn1)[C@H]1CCN2C1 (stereo partly drawn)", "TRP Activity (EC1.5)": "B (B (EC1.5 1-25 μM))"}
{"compound": "O=C(Nc1ccccc1CCC(F)(F)F)N1c2nc(Cl)ccc2N2CC[C@H]1C2", "TRP Activity (EC1.5)": "B (B (EC1.5 1-25 μM))"}
{"compound": "O=C(Nc1cncc(F)c1)N1c2nc(-c3ccnc(C(F)(F)F)c3)ccc2N2CCC[C@H]1C2", "TRP Activity (EC1.5)": "A (A (EC1.5<1 μM))"}

stdin: // returns reported TRP Activity (EC1.5) for input Cc1ccc(-c2cc(C)c3c(n2)N(C(=O)Nc2ccccn2)[C@H]2CCN3C2)cn1
stdout: B (B (EC1.5 1-25 μM))

stdin: # get_value(readout='TRP Activity (EC1.5)', item= O=C(Nc1ccnc(OC[C@H](O)CO)n1)N1c2nc(-c3cccc(C(F)(F)F)c3)ccc2N2CC[C@H]1C2 )
stdout: A (A (EC1.5<1 μM))

stdin: Look at this compound and give its reported TRP Activity (EC1.5). CC(C)n1cc(-c2ccc3c(n2)N(C(=O)Nc2cnccn2)[C@H]2CCN3C2)cn1
stdout: A (A (EC1.5<1 μM))

stdin: Any idea what its TRP Activity (EC1.5) is? The compound is C[C@@H]1CN(c2ccc3c(n2)N(C(=O)Nc2cnccn2)[C@H]2CCN3C2)C[C@H](C)O1
stdout: B (B (EC1.5 1-25 μM))

stdin: Given the compound CC1(C)CN(c2ccc3c(n2)N(C(=O)Nc2cnccn2)[C@H]2CCN3C2)CCO1 , what is its reported TRP Activity (EC1.5)?
stdout: A (A (EC1.5<1 μM))

stdin: Give the measured TRP Activity (EC1.5) of Cc1ccc(-c2ccc3c(n2)N(C(=O)Nc2cccnc2)[C@H]2CCN3C2)c(C)n1 .
stdout: B (B (EC1.5 1-25 μM))

stdin: What value of TRP Activity (EC1.5) has been recorded for this entry: Cn1ccc(-c2ccc3c(n2)N(C(=O)Nc2cnccn2)[C@H]2CCN3C2)cc1=O
stdout: B (B (EC1.5 1-25 μM))

stdin: Returns the measured TRP Activity (EC1.5) for the input compound. Input: CCOc1cc(-c2ccc3c(n2)N(C(=O)Nc2cnccn2)[C@H]2CCN3C2)ccn1
stdout: B (B (EC1.5 1-25 μM))

stdin: Tell me the measured TRP Activity (EC1.5) of O=C(Nc1cnccn1)N1c2nc(-c3ccnc(C(F)(F)F)n3)ccc2N2CC[C@H]1C2 , please.
stdout: B (B (EC1.5 1-25 μM))

stdin: Fill in: TRP Activity (EC1.5) of C[C@H]1CNCCN1c1ccc2c(n1)N(C(=O)Nc1cnccn1)[C@H]1CCN2C1 is ___
stdout: C (C (EC1.5>25 μM))

stdin: Entry Cc1cc(-c2ccc3c(n2)N(C(=O)NC2CCC2)[C@H]2CCN3C2)ccn1 has what TRP Activity (EC1.5)?
stdout: B (B (EC1.5 1-25 μM))

stdin: TRP Activity (EC1.5) lookup needed for O=C(Nc1ccccn1)N1c2nc(N3CCC[C@@H](C(F)(F)F)C3)ccc2N2CC[C@H]1C2 , thanks.
stdout: B (B (EC1.5 1-25 μM))

stdin: Query: TRP Activity (EC1.5); subject: O=C(Nc1cnccn1)N1c2cc(N3CCCC(C(F)(F)F)C3)ccc2N2CCC[C@H]1C2 (stereo partly drawn)
stdout: A (A (EC1.5<1 μM))

stdin: I am curious: what TRP Activity (EC1.5) value has been reported for Cc1cc(-c2ccc3c(n2)N(C(=O)Nc2cncc(F)n2)[C@H]2CCN3C2)ccn1 ?
stdout: A (A (EC1.5<1 μM))

stdin: Name the recorded TRP Activity (EC1.5) for CCc1ccc(-c2ccc3c(n2)N(C(=O)Nc2cnccn2)[C@H]2CCN3C2)cn1 .
stdout: B (B (EC1.5 1-25 μM))

stdin: Endpoint output: TRP Activity (EC1.5) of Cc1cc(-c2ccc3c(n2)N(C(=O)Nc2nccc(C)n2)[C@H]2CCN3C2)ccn1 . Value?
stdout: B (B (EC1.5 1-25 μM))

stdin: Given the entry Cc1cc(-c2ccc3c(n2)N(C(=O)Nc2cnccn2)[C@H]2CCN3C2)c(C)cn1 , report its measured TRP Activity (EC1.5).
stdout: B (B (EC1.5 1-25 μM))

stdin: Need TRP Activity (EC1.5), item O=C(Nc1cccnc1)N1c2nc(N3CCC[C@H](C(F)(F)F)C3)ccc2N2CCC[C@H]1C2
stdout: A (A (EC1.5<1 μM))

stdin: I am curious: what TRP Activity (EC1.5) value has been reported for Cc1cc(-c2ccc3c(n2)N(C(=O)NCCc2ccccn2)[C@H]2CCN3C2)ccn1 [hydrochloride] ?
stdout: C (C (EC1.5>25 μM))

stdin: GET /values?readout=TRP Activity (EC1.5)&item= Cc1cc(-c2ccc3c(n2)N(C(=O)Nc2c[nH]nn2)[C@H]2CCN3C2)ccn1
stdout: B (B (EC1.5 1-25 μM))
